- Test system: Escherichia coli TOP10
- assayComment: shrunken log2 fold change of peptide-encoding DNA abundance (4.5 h post-induction vs induction); higher = less antimicrobial activity (less host growth inhibition)
- appliedConditions: time post-induction: 4.5 h; library: site-saturation at positions 5, 18, 19, 20
readout: shrunken log2 fold change

Solved cases below.
[[record]]
polymersequence = "RRIRHRPPRLPRPRPRPDCCPRP"
readout = "shrunken log2 fold change"
obsvalue = -0.0827

[[record]]
polymersequence = "RRIRDRPPRLPRPRPRPEQIPRP"
readout = "shrunken log2 fold change"
obsvalue = -0.0105

[[record]]
polymersequence = "RRIRRRPPRLPRPRPRPSQTPRP"
readout = "shrunken log2 fold change"
obsvalue = 0.294

[[record]]
polymersequence = "RRIRFRPPRLPRPRPRPAGHPRP"
readout = "shrunken log2 fold change"
obsvalue = 0.153

[[record]]
polymersequence = "RRIRSRPPRLPRPRPRPMAAPRP"
readout = "shrunken log2 fold change"
obsvalue = 1.8


Request: shrunken log2 fold change, test system Escherichia coli TOP10, entry `RRIRHRPPRLPRPRPRPLPPPRP`
0.196

Next up: `RRIRVRPPRLPRPRPRPMGGPRP`
0.062

Input `RRIRDRPPRLPRPRPRPDYSPRP`
0.0125

Entry to check: `RRIRMRPPRLPRPRPRPCFQPRP`
-0.0397

Then what about the sequence `RRIRKRPPRLPRPRPRPIWHPRP` ?
0.248

Cool, now `RRIRCRPPRLPRPRPRPWIMPRP`
-0.275

Further, for `RRIRGRPPRLPRPRPRPMEFPRP` ?
0.0673

What do we get for `RRIRGRPPRLPRPRPRPFRSPRP` ?
-0.599

What do we get for `RRIRRRPPRLPRPRPRPDWMPRP` ?
0.0919

Okay, and `RRIRLRPPRLPRPRPRPIRGPRP` ?
-0.0599

Cool, now `RRIRRRPPRLPRPRPRPYQVPRP`
-0.0648

One more sequence: `RRIRNRPPRLPRPRPRPFPTPRP`
0.00541

Next up: `RRIRIRPPRLPRPRPRPIWKPRP`
-0.0131

What do we get for `RRIRHRPPRLPRPRPRPTMYPRP` ?
0.000437

And then `RRIRDRPPRLPRPRPRPNKNPRP` , what is it?
-0.343

###

- Test system: Escherichia coli TOP10;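 also: peptides expressed intracellularly from a pBAD plasmid library in pooled LB shake-flask culture, induced with 0.3% L-arabinose, DNA abundance read by NGS, three biological replicates, DESeq2 with apeglm shrinkage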
- assayComment: shrunken log2 fold change of peptide-encoding DNA abundance (4.5 h post-induction vs induction); higher = less antimicrobial activity (less host growth inhibition)
- appliedConditions: time post-induction: 4.5 h; library: site-saturation at positions 5, 18, 19, 20
shrunken log2 fold change: recorded values
# print the numeric value only

[[record]]
polymersequence = "RRIRFRPPRLPRPRPRPTDKPRP"
experimentalsystem = "Escherichia coli TOP10"
obsvalue = 0.00702

[[record]]
polymersequence = "RRIRSRPPRLPRPRPRPIPPPRP"
experimentalsystem = "Escherichia coli TOP10"
obsvalue = -0.0431

[[record]]
polymersequence = "RRIRMRPPRLPRPRPRPHKCPRP"
experimentalsystem = "Escherichia coli TOP10"
obsvalue = 0.0429

[[record]]
polymersequence = "RRIRGRPPRLPRPRPRPRGYPRP"
experimentalsystem = "Escherichia coli TOP10"
obsvalue = 0.382

[[record]]
polymersequence = "RRIRARPPRLPRPRPRPEHHPRP"
experimentalsystem = "Escherichia coli TOP10"
obsvalue = 0.132

[[record]]
polymersequence = "RRIRNRPPRLPRPRPRPVHDPRP"
experimentalsystem = "Escherichia coli TOP10"
obsvalue = 0.068


Next sequence, shrunken log2 fold change to be filled in.
Fill in the blank: the reported shrunken log2 fold change of `RRIRFRPPRLPRPRPRPSLAPRP` is ____.
0.119

These measurements were taken from the supplement of paper PMC9112550.
